- assayedSystem: human TRPM2 (Homo sapiens)
- Construct: Specific bands of full length TRPM2 (black arrow) and degradation products (gray arrows) are marked; expressed in transfected cells
- Sequence (O94759 whole entry): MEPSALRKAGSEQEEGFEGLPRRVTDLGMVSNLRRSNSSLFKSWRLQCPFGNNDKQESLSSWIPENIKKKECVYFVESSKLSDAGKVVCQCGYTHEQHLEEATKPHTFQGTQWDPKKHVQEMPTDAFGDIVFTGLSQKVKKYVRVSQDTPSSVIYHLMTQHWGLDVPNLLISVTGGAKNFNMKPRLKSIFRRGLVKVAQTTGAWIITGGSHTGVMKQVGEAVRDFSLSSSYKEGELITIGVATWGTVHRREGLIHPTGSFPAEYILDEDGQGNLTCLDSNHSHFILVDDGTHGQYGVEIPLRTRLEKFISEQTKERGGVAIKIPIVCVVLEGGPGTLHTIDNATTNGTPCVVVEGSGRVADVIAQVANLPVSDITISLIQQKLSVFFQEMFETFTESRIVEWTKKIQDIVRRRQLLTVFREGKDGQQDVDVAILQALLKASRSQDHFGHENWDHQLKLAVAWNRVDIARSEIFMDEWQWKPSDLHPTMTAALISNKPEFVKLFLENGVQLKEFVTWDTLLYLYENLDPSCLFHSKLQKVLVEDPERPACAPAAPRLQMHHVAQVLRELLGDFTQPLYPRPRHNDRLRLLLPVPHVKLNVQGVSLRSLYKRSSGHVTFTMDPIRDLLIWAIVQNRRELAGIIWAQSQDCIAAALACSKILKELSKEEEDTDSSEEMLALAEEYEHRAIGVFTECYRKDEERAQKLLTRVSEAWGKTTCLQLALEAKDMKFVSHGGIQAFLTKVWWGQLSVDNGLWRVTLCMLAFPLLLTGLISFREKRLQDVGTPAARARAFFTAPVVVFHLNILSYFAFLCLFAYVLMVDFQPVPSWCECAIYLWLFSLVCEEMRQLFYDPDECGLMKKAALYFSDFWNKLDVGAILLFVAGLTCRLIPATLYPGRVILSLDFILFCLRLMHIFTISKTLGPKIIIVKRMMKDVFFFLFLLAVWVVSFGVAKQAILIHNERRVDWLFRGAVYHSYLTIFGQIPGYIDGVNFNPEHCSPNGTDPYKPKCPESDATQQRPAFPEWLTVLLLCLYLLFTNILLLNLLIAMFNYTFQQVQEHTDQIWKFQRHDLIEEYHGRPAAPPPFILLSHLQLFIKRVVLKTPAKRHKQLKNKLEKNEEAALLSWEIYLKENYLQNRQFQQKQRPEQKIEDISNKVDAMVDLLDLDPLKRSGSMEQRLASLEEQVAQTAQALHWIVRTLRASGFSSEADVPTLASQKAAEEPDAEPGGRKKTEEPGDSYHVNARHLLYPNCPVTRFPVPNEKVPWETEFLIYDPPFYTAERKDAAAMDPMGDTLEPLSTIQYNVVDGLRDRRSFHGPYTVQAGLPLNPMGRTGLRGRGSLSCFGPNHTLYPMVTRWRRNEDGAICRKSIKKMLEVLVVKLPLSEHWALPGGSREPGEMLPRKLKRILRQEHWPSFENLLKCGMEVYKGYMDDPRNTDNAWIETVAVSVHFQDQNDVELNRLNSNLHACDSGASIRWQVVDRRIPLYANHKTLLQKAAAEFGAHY
- assay: Whole-cell patch clamp, antagonism of TRPM2 activation by 100 μM ADPR in HEK293 clone TRPM2#24
- Type: cell-based
- conditionSet: analogue tested at 900 μM against 100 μM ADPR; footnote c: antagonistic effect observed but not statistically significant; read-out: Antagonism at TRPM2 (IC50), result as symbol

| compound | IC50 |
| --- | --- |
| Nc1nc(F)nc2c1ncn2[C@@H]1O[C@H](COP(=O)(O)OP(=O)(O)OC[C@H]2OC(O)[C@H](O)[C@@H]2O)[C@@H](O)[C@H]1O (some centres unmarked) [compound 16, 2-F-ADPR] | > 900 µM |
| O=c1[nH]cnc2c1ncn2[C@@H]1O[C@H](COP(=O)(O)OP(=O)(O)OC[C@H]2OC(O)[C@H](O)[C@@H]2O)[C@@H](O)[C@H]1O (some centres unmarked) [compound 13, Inosine-5′-diphosphoribose] | > 900 µM |
| O=c1[nH]cnc2c1ccn2[C@@H]1O[C@H](COP(=O)(O)OP(=O)(O)OC[C@H]2OC(O)[C@H](O)[C@@H]2O)[C@@H](O)[C@H]1O (some centres unmarked) [compound 14, 7-Deaza-IDPR] | > 900 µM |
| Nc1ncnc2c1nc(Cl)n2[C@@H]1O[C@H](COP(=O)(O)O)[C@@H](O)[C@H]1O [compound 87, 8-Cl-AMP, reference compound] | > 900 µM |
| Nc1ncnc2c1ncn2[C@@H]1O[C@H](COP(=O)(O)OP(=O)(O)OP(=O)(O)OC[C@H]2OC(O)[C@H](O)[C@@H]2O)[C@@H](O)[C@H]1O (some centres unmarked) [compound 47, Adenosine Triphosphoribose] | > 900 µM |
